Could you please report measured pEC50 for the items listed next?
System: HCV pseudoparticles
measurementProtocol: HCV pseudoparticle infection assay (luciferase reporter, Huh7 cells)
Assay type: cell-based, HCV (genotype 1b E1 and E2 envelope)
settings: Hepatitis C virus, genotype 1b, Huh-7, 48 h, HCV pseudoparticles (genotype 1b), luciferase activity 2 days after infection, class
pEC50: −log10 of the molar value.

Q: Recall and state the measured pEC50 for COCC1(S(=O)(=O)NC(=O)c2ccc(N(C)c3nc(OCC(F)(F)F)nc(N(C)C4(c5ccc(Cl)cc5)CC4)n3)cc2)CC1 .
A: 5.30 to 6.00

Q: Recall and state the measured pEC50 for CC(C)(C)S(=O)(=O)NC(=O)[C@@]1(NC(=O)CCCNC(=O)c2ccc(Nc3nc(NC4(c5ccc(Cl)cc5)CC4)nc(OCC(F)(F)F)n3)cc2)C[C@H]1C1CC1(F)F (stereo partly drawn) .
A: 7.00 to 9.30

Q: Recall and state the measured pEC50 for O=C(NS(=O)(=O)CCNCc1ccccc1)c1ccc(Nc2nc(NC3(c4ccc(Cl)cc4)CC3)nc(OCC(F)(F)F)n2)cc1 .
A: 7.00 to 9.30

Q: Recall and state the measured pEC50 for Cn1cnc(C[C@H](NC(=O)c2ccc(Nc3nc(NC4(c5ccc(Cl)cc5)CC4)nc(OCC(F)(F)F)n3)cc2)C(=O)N[C@]2(C(=O)NS(=O)(=O)C(C)(C)C)C[C@H]2C2CC2)c1 .
A: 7.00 to 9.30

Q: Recall and state the measured pEC50 for CC(C)(C)CNCCS(=O)(=O)NC(=O)c1ccc(Nc2nc(NC3(c4ccc(Cl)cc4)CC3)nc(OCC(F)(F)F)n2)cc1 .
A: 7.00 to 9.30

Q: Recall and state the measured pEC50 for C[C@@H](NC(=O)CCCNC(=O)c1ccc(Nc2nc(NC3(c4ccc(Cl)cc4)CC3)nc(OCC(F)(F)F)n2)cc1)C(=O)NS(=O)(=O)C1CC1 .
A: 7.00 to 9.30
